// data source = patent US20100222365A1

system-tested: Oxytocin receptor (CHO-OTR/NFAT-β-Lactamase cells) (Homo sapiens, UniProt P30559)
Sequence (P30559 1-389): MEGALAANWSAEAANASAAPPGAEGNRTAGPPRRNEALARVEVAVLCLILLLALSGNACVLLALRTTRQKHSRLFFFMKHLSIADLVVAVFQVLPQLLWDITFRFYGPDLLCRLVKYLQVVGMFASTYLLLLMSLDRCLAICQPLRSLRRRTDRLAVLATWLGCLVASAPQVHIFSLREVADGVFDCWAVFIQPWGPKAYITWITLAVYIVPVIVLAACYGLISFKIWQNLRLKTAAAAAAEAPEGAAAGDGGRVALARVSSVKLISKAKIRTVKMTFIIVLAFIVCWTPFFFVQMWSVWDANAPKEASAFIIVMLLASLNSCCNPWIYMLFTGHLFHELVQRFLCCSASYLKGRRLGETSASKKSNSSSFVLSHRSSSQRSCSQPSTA
protocol-text: Oxytocin Receptor Beta-lactamase Assay
cond: oxytocin stimulation 4 hours, read-out: Oxytocin antagonist activity, expressed as a Ki value
quantity: pKi
Note: pKi values are expressed as the negative base-10 logarithm of concentration in M.

Answer with the recorded pKi for the molecule listed here: COc1ccc(-n2c(C)nnc2-c2cnc(Oc3cccc(C)c3C)cn2)cn1 [Example 6]
8.26
